meta.source: PubChem BioAssay (NCI)

Listed compounds paired with reported TGI
- Test system: NCI-H226 lung
- method: NCI tumour cell line growth inhibition, 48 h

compound	TGI
Cc1nc(NC(=O)COc2cccc(/C=C3\COc4ccccc4C3=O)c2)sc1C	9.66 µM
CNC(=S)NNC(=O)c1c(C)nc2sccn12	> 100 µM
CCCCCCOC(=O)C(N)Cc1ccc(OC)cc1 (stereo unspecified)	> 100 µM
CCOC(=O)c1c(N2CCOCC2)[nH]c(=O)c(C(c2c(O)c(C(=O)OCC)c(N3CCOCC3)[nH]c2=O)C(C)C)c1O	> 100 µM
O=[N+]([O-])c1nccn1CCCN=c1c2ccccc2n(O)c2ccccc12	> 100 µM
N#Cc1ccc(Nc2cnc3cc(N)ccc3n2)cc1	> 100 µM
CCOC(=O)CCC(NC(=O)N1CCN(c2c(C)nc(C)[nH]c2=O)CC1)C(=O)OCC (stereo unspecified)	> 100 µM
CCc1ccc(/C(C#N)=C/C=C/c2ccccc2)cc1	> 100 µM
COc1ccc(Cc2nc3cc(Cl)ccc3o2)cc1	> 100 µM
Clc1cccc(Cn2cc(Cc3cn(Cc4cccc(Cl)c4)c4ccccc34)c3ccccc32)c1	59 µM
CC(=O)OCC1OC(O[C@@H]2C[C@H]3C(C)(C)[C@H](OC(C)=O)CC[C@]3(C)[C@H]3CC[C@@]45C[C@H](O)C[C@H](C)[C@@H]4CC=C5[C@@]32C)C(O)C(O)C1O (stereo partly specified)	16.1 µM
